# test-details: Tissue distribution
# Assay type: in vivo, rats
# details: male, Wistar, rat; 5 mg/kg iv, Brain
assay-endpoint: Tmax (min)
Give a bare numeral; the unit min is implied.

Qu. Identify measured Tmax associated with CCC(CO)NCCOc1c(C)cccc1Cl (stereo not shown)
Ans. 5

====

# assayed-target: κ (KOP) (Rattus norvegicus, UniProt P34975)
# Sequence (P34975 whole entry): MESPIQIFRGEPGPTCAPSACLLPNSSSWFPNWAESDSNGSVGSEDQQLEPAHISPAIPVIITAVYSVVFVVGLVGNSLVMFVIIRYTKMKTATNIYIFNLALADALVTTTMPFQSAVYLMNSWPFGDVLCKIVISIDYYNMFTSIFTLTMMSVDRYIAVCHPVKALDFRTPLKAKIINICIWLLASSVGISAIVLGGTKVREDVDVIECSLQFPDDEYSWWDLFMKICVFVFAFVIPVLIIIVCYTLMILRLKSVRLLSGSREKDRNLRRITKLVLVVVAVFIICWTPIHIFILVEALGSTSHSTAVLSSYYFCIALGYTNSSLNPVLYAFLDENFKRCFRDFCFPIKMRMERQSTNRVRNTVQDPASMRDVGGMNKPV
assay-endpoint: pIC50
Keep in mind that pIC50 stands for -log10 of concentration in molar terms.

Qu. Provide pIC50, system κ (KOP) (Rattus norvegicus, UniProt P34975), entry CCC(CO)NCCOc1c(C)cccc1Cl (stereo not shown) [KM-408]
Ans. 4.60

====

# test-details: Pharmacokinetics in plasma
# Assay type: in vivo, rats
# details: male, Wistar, rat, plasma; rats, po 50 mg/kg; read-out: Vz/F
assay-endpoint: Vd/F (L/kg)
Use L/kg as the unit, but write only the number.

Qu. Note Vd/F for the compound shown: CCC(CO)NCCOc1c(C)cccc1Cl (stereo not shown) [KM-408]
Ans. 80.3

====

# assayed-target: hNav1.8/beta3 sodium channel (Homo sapiens, UniProt Q9Y5Y9)
# Construct: host or cells: CHO cells
# test-details: Nav channel electrophysiology (IonWorks Quattro)
# Format: cell-based
# details: Tonic block
assay-endpoint: IC50 (µM)
Value expressed in µM; do not type the unit.

Qu. Given CCC(CO)NCCOc1c(C)cccc1Cl (stereo not shown) , report its IC50 on hNav1.8/beta3 sodium channel (Homo sapiens, UniProt Q9Y5Y9).
Ans. 44.1

====

# test-details: Pharmacokinetics in plasma
# Type: in vivo, rats
# details: male, Wistar, rat, plasma; rats, iv 10 mg/kg; read-out: Vz
assay-endpoint: Vd (L/kg)
Note: unit L/kg is implicit; provide only the numeric part.

Qu. Please give the documented Vd of CCC(CO)NCCOc1c(C)cccc1Cl (stereo not shown)
Ans. 2.3

====

# test-details: Tissue distribution
# Format: in vivo, rats
# details: male, Wistar, rat; 5 mg/kg iv, Kidneys; read-out: λz (converted)
assay-endpoint: k el (s⁻¹)
Report as a plain number; the unit s⁻¹ is understood.

Qu. Give k el for the following molecule: CCC(CO)NCCOc1c(C)cccc1Cl (stereo not shown)
Ans. 0.000717

====

# assayed-target: κ (KOP) (Rattus norvegicus)
# test-details: Radioligand binding
assay-endpoint: Ki

Qu. Report Ki under test system κ (KOP) (Rattus norvegicus) for CCC(CO)NCCOc1c(C)cccc1Cl (stereo not shown) [KM-408] .
Ans. 17 µM

====

# test-details: Tissue distribution
# Assay type: in vivo, rats
# details: male, Wistar, rat; 5 mg/kg iv, Heart
assay-endpoint: MRT (min)
Just the number in min, nothing appended.

Qu. For the compound CCC(CO)NCCOc1c(C)cccc1Cl (stereo not shown) , report MRT.
Ans. 58.5

====

# assayed-target: hNav1.6 sodium channel (Homo sapiens, UniProt Q9UQD0)
# Construct: host or cells: CHO cells
# test-details: Nav channel electrophysiology (IonWorks Quattro)
# Type: cell-based
# details: Tonic block
assay-endpoint: IC50 (µM)
Form entry: value (µM) — number only.

Qu. Report IC50, nothing else, for this molecule: CCC(CO)NCCOc1c(C)cccc1Cl (stereo not shown) [KM-408]
Ans. 60.1

====

# test-details: Pharmacokinetics in plasma
# Assay type: in vivo, rats
# details: male, Wistar, rat, plasma, po, 100 mg/kg, rats, po 100 mg/kg; read-out: F
assay-endpoint: bioavailability (%)
State the answer as a number, implicitly in %.

Qu. Return value of bioavailability for input CCC(CO)NCCOc1c(C)cccc1Cl (stereo not shown) , no commentary.
Ans. 3.6

====

# System: rats
# test-details: Maximal electroshock seizure (MES) test
# Format: in vivo
# details: ip
assay-endpoint: MES PI

Observe how each entry below is paired with its result.
compound: CC[C@H](CO)NCCOc1c(C)cccc1Cl
recorded-result: > 9.12

compound: CC[C@H](CO)NCCOc1c(C)cccc1Cl.Cl
recorded-result: 10.15

compound: CC[C@@H](CO)NCCOc1c(C)cccc1Cl
recorded-result: 4.19

Qu. Retrieve MES PI on rats; query CCC(CO)NCCOc1c(C)cccc1Cl (stereo not shown)
Ans. 9.55

====

# test-details: Pharmacokinetics in plasma
# Type: in vivo, rats
# details: male, Wistar, rat, plasma; rats, po 50 mg/kg
assay-endpoint: CL/F (mL/min/kg)
Give the value, in units of mL/min/kg, as a plain number.

Qu. Provide only the value of recorded CL/F for CCC(CO)NCCOc1c(C)cccc1Cl (stereo not shown)
Ans. 1950

====

# test-details: Pharmacokinetics in plasma
# Assay type: in vivo, rats
# details: male, Wistar, rat, plasma; rats, iv 5 mg/kg
assay-endpoint: MRT (min)
Number in min, nothing else.

Qu. Give MRT for CCC(CO)NCCOc1c(C)cccc1Cl (stereo not shown) [KM-408]
Ans. 43.5

====

# assayed-target: hNav1.4 sodium channel (Homo sapiens, UniProt P35499)
# Construct: host or cells: CHO cells
# Sequence (P35499 whole entry): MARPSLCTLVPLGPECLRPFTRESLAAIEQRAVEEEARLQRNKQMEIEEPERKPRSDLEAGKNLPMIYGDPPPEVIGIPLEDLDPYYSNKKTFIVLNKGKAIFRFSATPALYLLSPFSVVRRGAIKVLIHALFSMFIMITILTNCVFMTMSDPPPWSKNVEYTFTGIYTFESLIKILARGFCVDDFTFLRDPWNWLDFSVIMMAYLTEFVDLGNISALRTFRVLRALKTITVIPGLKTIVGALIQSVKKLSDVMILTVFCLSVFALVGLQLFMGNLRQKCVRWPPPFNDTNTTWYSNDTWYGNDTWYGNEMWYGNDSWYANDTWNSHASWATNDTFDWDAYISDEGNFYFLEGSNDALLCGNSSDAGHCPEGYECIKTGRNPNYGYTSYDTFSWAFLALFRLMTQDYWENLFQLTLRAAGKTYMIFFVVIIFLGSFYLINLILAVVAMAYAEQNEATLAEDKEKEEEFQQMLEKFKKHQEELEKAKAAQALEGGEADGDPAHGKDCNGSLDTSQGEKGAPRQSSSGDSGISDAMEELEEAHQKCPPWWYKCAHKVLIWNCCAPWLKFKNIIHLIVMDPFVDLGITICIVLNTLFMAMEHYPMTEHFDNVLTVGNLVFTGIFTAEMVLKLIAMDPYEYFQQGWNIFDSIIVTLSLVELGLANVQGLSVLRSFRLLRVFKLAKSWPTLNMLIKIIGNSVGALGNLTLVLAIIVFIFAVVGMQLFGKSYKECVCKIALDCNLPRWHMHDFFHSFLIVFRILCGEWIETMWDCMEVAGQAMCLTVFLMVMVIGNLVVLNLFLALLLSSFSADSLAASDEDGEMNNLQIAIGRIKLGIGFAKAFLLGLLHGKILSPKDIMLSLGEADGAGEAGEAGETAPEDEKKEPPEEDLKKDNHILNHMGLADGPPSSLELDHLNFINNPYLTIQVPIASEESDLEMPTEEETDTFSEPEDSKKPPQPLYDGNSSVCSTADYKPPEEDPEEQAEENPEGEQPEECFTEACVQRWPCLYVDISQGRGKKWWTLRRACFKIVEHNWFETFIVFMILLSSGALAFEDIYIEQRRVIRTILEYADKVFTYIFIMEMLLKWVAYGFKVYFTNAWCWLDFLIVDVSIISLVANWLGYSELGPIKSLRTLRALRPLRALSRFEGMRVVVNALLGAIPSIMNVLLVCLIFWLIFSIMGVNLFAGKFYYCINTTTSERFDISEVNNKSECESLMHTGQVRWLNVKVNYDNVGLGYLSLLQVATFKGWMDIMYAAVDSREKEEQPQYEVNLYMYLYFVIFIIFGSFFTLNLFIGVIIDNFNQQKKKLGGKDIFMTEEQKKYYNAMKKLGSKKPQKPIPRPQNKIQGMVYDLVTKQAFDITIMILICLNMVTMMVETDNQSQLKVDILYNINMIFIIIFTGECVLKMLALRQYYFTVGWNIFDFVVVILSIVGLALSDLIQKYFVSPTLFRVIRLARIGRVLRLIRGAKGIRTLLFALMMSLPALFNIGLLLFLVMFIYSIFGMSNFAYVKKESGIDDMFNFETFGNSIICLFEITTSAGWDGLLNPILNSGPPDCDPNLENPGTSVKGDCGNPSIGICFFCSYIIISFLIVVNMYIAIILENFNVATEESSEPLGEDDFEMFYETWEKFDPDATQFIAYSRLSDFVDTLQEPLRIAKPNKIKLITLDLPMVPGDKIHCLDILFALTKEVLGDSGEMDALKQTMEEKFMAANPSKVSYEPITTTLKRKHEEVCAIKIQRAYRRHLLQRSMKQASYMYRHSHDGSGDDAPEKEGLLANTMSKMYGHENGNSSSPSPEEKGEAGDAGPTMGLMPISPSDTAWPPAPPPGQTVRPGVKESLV
# test-details: Nav channel electrophysiology (IonWorks Quattro)
# Type: cell-based
# details: 10 Hz
assay-endpoint: pIC50
By convention, pIC50 is the negative base-10 log of a molar concentration.

Qu. Give recorded pIC50. CCC(CO)NCCOc1c(C)cccc1Cl (stereo not shown) [KM-408]
Ans. 5.09

====

# test-details: Tissue distribution
# Format: in vivo, rats
# details: male, Wistar, rat; 5 mg/kg iv, Liver
assay-endpoint: Tmax (min)
State just the number; it will be interpreted in min.

Qu. Please list Tmax recorded for the compound CCC(CO)NCCOc1c(C)cccc1Cl (stereo not shown)
Ans. 5

====

# test-details: Tissue distribution
# Format: in vivo, rats
# details: male, Wistar, rat; 5 mg/kg iv, Lungs
assay-endpoint: MRT (min)
Report the figure in min without appending any unit label.

Qu. Recall and state the measured MRT for CCC(CO)NCCOc1c(C)cccc1Cl (stereo not shown) .
Ans. 46.9

====

# test-details: Acute toxicity (LD50)
# details: rat, in vivo; po, rats
assay-endpoint: LD50 at 72 h (mg/kg)
Field: numeric (mg/kg). Do not append units.

Qu. Please supply the value of reported LD50 at 72 h for the item CCC(CO)NCCOc1c(C)cccc1Cl (stereo not shown)
Ans. 670

====

# assayed-target: UniProt:Q01959
# Sequence (Q01959 whole entry): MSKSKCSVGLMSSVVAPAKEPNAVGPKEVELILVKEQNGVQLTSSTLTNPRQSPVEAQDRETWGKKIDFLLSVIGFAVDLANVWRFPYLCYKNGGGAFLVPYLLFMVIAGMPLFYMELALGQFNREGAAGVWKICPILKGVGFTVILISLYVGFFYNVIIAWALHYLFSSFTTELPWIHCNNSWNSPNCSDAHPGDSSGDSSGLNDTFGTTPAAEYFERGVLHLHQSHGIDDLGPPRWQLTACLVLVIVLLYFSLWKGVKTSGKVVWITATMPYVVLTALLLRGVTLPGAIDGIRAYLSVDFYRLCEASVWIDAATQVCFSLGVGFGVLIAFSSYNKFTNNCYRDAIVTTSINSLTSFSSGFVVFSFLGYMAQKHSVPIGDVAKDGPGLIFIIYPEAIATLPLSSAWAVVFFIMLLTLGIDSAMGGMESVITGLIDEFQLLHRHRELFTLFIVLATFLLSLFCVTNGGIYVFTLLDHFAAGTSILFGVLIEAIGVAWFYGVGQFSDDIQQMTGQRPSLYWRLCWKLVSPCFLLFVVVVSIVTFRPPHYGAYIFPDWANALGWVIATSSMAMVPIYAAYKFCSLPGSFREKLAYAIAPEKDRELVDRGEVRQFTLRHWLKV
assay-endpoint: IC50

Qu. Give IC50; test system UniProt:Q01959; compound CCC(CO)NCCOc1c(C)cccc1Cl (stereo not shown) [KM-408]
Ans. 43 µM

====

# assayed-target: 5-HT7 (Homo sapiens, UniProt P34969)
# Sequence (P34969 whole entry): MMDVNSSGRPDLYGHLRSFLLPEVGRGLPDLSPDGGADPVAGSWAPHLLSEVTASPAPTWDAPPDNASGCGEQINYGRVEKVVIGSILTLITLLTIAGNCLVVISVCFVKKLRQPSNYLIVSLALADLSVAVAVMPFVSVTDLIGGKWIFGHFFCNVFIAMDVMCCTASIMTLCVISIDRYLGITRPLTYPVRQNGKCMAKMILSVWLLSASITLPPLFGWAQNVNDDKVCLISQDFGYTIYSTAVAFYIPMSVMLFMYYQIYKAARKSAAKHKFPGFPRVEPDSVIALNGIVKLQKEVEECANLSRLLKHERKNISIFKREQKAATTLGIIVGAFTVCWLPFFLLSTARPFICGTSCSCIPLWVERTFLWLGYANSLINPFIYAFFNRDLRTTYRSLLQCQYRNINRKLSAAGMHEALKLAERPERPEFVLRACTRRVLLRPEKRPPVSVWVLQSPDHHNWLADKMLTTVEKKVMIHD
assay-endpoint: pKi
On this scale, pKi is minus log10 of a concentration expressed in M (mol/L).

Qu. Specify pKi for CCC(CO)NCCOc1c(C)cccc1Cl (stereo not shown) , system 5-HT7 (Homo sapiens, UniProt P34969).
Ans. 5.19

====

# assayed-target: hNav1.7 sodium channel (Homo sapiens, UniProt Q15858)
# Construct: host or cells: CHO cells
# test-details: Nav channel electrophysiology (IonWorks Quattro)
# Format: cell-based
# details: Inactivated state
assay-endpoint: IC50

Qu. Note IC50 for the compound shown: CCC(CO)NCCOc1c(C)cccc1Cl (stereo not shown) [KM-408]
Ans. < 10 µM

====

# test-details: Pharmacokinetics in plasma
# Type: in vivo, rats
# details: male, Wistar, rat, plasma; rats, po 100 mg/kg; read-out: λz (converted)
assay-endpoint: k el (s⁻¹)
Write the value in s⁻¹ as a bare number.

Qu. Identify measured k el corresponding to CCC(CO)NCCOc1c(C)cccc1Cl (stereo not shown)
Ans. 0.000333

====

# assayed-target: CYP2D6 (Homo sapiens)
# Construct: from tissue; host or cells: human liver microsomes
# Sequence (P10635 whole entry): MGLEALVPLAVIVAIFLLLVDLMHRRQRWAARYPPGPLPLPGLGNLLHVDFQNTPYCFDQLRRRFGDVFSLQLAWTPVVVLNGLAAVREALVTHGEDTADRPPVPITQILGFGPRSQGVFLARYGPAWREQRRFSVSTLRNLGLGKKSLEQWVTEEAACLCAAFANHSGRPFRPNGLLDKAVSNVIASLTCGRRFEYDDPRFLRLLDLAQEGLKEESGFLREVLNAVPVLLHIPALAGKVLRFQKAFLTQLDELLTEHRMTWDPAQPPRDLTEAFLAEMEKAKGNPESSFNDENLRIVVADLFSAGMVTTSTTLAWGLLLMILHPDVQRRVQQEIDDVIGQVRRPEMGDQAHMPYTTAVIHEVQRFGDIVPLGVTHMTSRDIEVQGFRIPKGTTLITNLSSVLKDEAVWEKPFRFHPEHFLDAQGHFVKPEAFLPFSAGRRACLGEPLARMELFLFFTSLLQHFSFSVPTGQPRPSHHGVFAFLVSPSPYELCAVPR
# test-details: Human cytochrome P450 inhibition (human liver microsomes)
# Type: in vitro ADME
assay-endpoint: Ki (nM)
Report only the number, with the unit nM understood.

Qu. Give the measured Ki for CCC(CO)NCCOc1c(C)cccc1Cl (stereo not shown)
Ans. 1400

====

# test-details: Pharmacokinetics in plasma
# Type: in vivo, rats
# details: male, Wistar, rat, plasma; rats, iv 5 mg/kg
assay-endpoint: AUC(0-t) (µg·h/mL)
Give just the number in µg·h/mL; leave the unit off.

Qu. Output measured AUC(0-t) for this item: CCC(CO)NCCOc1c(C)cccc1Cl (stereo not shown)
Ans. 1.21

====

# test-details: Tissue distribution;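 further: organ homogenates in PBS analysed by HPLC after FMOC-Cl derivatization, non-compartmental analysis, Kp as tissue over plasma AUC, half-life taken as ln2 divided by λz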
# Format: in vivo, rats
# details: male, Wistar, rat; 5 mg/kg iv, Kidneys
assay-endpoint: Tmax (min)
Unit min implied. Number only.

Qu. Identify the reported Tmax for the following entry. CCC(CO)NCCOc1c(C)cccc1Cl (stereo not shown)
Ans. 5

====

# test-details: Pharmacokinetics in plasma
# Assay type: in vivo, rats
# details: male, Wistar, rat, plasma, po, 100 mg/kg, rats, po 50 and 100 mg/kg; read-out: absolute bioavailability
assay-endpoint: bioavailability

Qu. Determine its reported bioavailability: CCC(CO)NCCOc1c(C)cccc1Cl (stereo not shown)
Ans. 3.6 to 3.9%
